# tested_system: RORγ (UniProt P51449)
# Sequence (P51449 1-518): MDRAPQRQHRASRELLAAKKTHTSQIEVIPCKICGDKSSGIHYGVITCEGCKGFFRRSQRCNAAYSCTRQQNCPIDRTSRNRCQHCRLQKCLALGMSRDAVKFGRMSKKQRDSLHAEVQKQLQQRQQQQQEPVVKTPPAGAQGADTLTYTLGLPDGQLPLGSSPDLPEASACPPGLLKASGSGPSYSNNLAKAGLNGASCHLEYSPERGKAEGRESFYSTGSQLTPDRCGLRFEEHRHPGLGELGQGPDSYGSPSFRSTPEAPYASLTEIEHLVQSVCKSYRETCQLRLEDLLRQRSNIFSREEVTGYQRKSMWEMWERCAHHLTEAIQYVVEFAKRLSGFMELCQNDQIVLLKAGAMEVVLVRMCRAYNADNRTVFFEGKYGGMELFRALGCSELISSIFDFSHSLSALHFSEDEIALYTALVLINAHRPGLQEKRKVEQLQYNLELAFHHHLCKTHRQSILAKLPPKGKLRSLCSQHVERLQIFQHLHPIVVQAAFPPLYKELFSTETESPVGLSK
# protocol_notes: RORγ Gal4 Reporter Gene Assay in 293T cells (firefly and renilla luciferase)
# Type: cell-based, human
# settings: third value of the cell; Gal4 reporter gene assay in 293T cells, renilla normalised luciferase
measured_endpoint: pIC50 (REN)

Cc1c(C(=O)NC2COC2)cc(-c2ccc(C(=O)NC(C)(C)C)c(C(C)(C)C)c2)n1CC1CCCCC1: 6.2
Cc1c(C(=O)N2CC(CC(=O)O)C2)cc(-c2ccc(S(=O)(=O)NC(C)(C)C)c(C(F)(F)F)c2)n1CC1CCCCC1: 6.1
Cc1c(C(=O)NCCC(C)(C)C(=O)O)cc(-c2ccc(S(=O)(=O)NC(C)(C)C)c(C(F)F)c2)n1CC1CCCCC1: 7.6
Cc1c(C(=O)NC2CCOCC2)cc(-c2ccc(S(=O)(=O)NC(C)(C)C)c(C(F)(F)F)c2Cl)n1CC1CCCCC1: 7.3
Cc1c(C(=O)NCC(C)(C)C(=O)N(C)C)cc(-c2cc(C(C)(C)C)c3c(c2)C2(CCO3)CC2)n1CC1CCCCC1: 6.9
CCN(C(C)(C)C)S(=O)(=O)c1ccc(-c2cc(C(=O)NC3COC3)c(C)n2CC2CCCCC2)cc1C(C)(C)C: 7.8
Cc1c(C(=O)NC2CCOCC2)cc(-c2ccc(C(C)(C)C(=O)NC(C)(C)C)c(C(F)(F)F)c2)n1CC1CCCCC1: 6.2
